target: GABAB receptors (Rattus norvegicus, UniProt Q9Z0U4); construct: Rat brain synaptosomes are used as a source of GABAB receptors; from tissue; host or cells: rat brain synaptosomes; test: GABAB Receptor Binding Assay ([3H]GABA, rat brain synaptosomes); conditions: 5 nM [3H]GABA, rat brain synaptosomes, 20° C., 30 min
Sequence (Q9Z0U4 17-960 limits assumed): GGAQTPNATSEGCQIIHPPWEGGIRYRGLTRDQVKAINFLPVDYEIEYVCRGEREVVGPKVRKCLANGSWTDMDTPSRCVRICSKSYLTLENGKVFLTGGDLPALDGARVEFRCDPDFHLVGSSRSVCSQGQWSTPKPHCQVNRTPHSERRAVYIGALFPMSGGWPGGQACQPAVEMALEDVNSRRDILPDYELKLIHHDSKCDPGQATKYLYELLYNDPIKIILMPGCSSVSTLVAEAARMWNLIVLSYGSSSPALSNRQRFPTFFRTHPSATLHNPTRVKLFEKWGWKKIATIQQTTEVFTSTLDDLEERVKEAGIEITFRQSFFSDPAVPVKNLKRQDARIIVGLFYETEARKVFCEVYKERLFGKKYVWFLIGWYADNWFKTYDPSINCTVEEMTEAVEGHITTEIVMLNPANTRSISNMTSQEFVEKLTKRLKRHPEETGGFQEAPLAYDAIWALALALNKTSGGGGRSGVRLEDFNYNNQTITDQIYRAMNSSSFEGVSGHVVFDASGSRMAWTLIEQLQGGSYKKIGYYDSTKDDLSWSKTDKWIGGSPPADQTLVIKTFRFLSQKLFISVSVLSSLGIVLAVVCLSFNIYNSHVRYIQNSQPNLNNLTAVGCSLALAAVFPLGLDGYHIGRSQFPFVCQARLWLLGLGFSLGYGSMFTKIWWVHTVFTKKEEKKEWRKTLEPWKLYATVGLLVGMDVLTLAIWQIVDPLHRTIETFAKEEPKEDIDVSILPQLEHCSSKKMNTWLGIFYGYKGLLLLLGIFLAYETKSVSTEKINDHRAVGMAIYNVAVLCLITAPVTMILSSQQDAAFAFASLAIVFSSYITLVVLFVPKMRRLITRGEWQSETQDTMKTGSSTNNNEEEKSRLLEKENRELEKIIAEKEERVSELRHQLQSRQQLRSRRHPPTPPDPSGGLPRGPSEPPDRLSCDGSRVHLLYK
Sequence (O88871 41-940 partner): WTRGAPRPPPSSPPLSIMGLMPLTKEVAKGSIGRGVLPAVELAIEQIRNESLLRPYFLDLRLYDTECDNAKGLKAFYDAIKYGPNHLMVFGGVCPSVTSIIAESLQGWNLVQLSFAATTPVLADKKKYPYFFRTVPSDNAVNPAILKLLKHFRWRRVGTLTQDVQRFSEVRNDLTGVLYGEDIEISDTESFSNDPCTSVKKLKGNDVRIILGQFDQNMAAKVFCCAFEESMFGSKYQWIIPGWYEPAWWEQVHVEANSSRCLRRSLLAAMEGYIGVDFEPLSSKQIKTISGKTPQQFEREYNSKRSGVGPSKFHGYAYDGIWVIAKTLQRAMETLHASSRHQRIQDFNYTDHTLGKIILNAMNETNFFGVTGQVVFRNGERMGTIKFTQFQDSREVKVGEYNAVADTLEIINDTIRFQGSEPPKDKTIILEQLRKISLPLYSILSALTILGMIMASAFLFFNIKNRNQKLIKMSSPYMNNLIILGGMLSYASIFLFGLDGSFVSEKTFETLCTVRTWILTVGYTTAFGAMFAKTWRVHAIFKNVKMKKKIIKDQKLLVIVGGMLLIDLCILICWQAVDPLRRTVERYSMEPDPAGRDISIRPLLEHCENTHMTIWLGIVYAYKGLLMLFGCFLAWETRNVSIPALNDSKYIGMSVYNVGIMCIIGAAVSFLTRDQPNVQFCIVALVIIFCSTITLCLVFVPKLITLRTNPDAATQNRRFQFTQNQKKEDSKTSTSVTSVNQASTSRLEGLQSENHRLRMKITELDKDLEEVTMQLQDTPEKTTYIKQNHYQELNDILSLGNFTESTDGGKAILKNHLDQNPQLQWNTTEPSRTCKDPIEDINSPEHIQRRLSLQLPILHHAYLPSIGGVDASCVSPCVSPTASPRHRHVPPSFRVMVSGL
IC50 for assorted compounds
Measured Metric: IC50

INSERT INTO results (compound, endpoint_value) VALUES
  ('CP(=O)(O)CC1CN(Cc2ccccc2)CCO1 (stereo not drawn)', '> 100 µM'),
  ('CC1(C)COC(CC(=O)O)CN1 (single isomer, unassigned) [Example 6A]', '2 µM'),
  ('CC[C@H]1CO[C@H](CC(=O)O)CN1', '> 100 µM'),
  ('CP(=O)(O)CC1CNC2(CCCC2)CO1 (stereo not drawn)', '3 µM'),
  ('CC[C@@H]1CO[C@@H](CC(=O)O)CN1', '14 µM'),
  ('C[C@@H]1CS[C@@H](CC(=O)O)CN1 (relative stereo) [Example 13C]', '20 µM'),
  ('O=C(O)CC1CNC2(CCCC2)CO1 (stereo not drawn)', '10 µM'),
  ('O=C(O)CC1CNCCO1 (stereo not drawn)', '50 µM'),
  ('CC1(C)COC(CC(=O)O)CN1 (single isomer, unassigned) [Example 6B]', '> 100 µM'),
  ('C[C@@H]1CO[C@@H](CC(=O)O)CN1 (relative stereo) [Example 14A]', '30 µM'),
  ('CC[C@@H]1CO[C@H](CC(=O)O)CN1', '100 µM'),
  ('C[C@H]1CS[C@@H](CC(=O)O)CN1 (relative stereo) [Example 13B]', '60 µM'),
  ('O=C(O)CC1CNC2(CC2)CO1 (stereo not drawn)', '37 µM'),
  ('CC1(C)COC(CC(=O)O)CN1 (stereo not drawn) [Example 2]', '6 µM'),
  ('C[C@]1(CO)CO[C@@H](CC(=O)O)CN1 (relative stereo)', '3.8 µM'),
  ('C[C@H]1CO[C@@H](CC(=O)O)CN1 (relative stereo)', '20 µM'),
  ('CP(=O)(O)CC1CNCCO1 (stereo not drawn)', '6 µM'),
  ('CC[C@]1(CO)CO[C@@H](CC(=O)O)CN1 (relative stereo)', '100 µM'),
  ('CC1CNCC(CC(=O)O)S1 (stereo not drawn)', '> 100 µM'),
  ('CC[C@@]1(CO)CO[C@@H](CC(=O)O)CN1 (relative stereo)', '19 µM'),
  ('CC1(C)COC(CP(C)(=O)O)CN1 (stereo not drawn)', '2 µM');

###

Molecular target: UniProt:A0A286X9P6
Sequence (A0A286X9P6 30-844): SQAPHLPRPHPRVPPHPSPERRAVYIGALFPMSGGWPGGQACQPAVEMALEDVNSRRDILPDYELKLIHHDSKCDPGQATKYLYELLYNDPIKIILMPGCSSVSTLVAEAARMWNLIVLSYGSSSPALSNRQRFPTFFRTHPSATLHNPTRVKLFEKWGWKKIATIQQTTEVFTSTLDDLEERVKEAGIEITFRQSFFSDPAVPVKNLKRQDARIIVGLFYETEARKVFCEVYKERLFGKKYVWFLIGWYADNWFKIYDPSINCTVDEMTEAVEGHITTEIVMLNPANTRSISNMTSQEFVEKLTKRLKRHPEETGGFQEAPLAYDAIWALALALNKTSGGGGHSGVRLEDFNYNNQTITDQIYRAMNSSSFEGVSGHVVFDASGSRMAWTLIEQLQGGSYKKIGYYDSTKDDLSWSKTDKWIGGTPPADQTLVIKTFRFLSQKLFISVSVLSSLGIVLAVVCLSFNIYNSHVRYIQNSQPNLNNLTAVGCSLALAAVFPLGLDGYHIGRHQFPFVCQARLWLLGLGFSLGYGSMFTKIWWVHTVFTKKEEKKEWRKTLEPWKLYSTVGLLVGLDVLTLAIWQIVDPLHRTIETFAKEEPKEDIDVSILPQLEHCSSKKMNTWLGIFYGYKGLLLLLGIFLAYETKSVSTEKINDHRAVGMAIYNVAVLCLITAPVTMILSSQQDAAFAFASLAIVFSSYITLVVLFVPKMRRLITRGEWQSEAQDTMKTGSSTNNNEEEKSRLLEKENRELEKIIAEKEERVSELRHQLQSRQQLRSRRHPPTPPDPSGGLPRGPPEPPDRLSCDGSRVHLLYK
Sequence (H0V741 1-820 partner): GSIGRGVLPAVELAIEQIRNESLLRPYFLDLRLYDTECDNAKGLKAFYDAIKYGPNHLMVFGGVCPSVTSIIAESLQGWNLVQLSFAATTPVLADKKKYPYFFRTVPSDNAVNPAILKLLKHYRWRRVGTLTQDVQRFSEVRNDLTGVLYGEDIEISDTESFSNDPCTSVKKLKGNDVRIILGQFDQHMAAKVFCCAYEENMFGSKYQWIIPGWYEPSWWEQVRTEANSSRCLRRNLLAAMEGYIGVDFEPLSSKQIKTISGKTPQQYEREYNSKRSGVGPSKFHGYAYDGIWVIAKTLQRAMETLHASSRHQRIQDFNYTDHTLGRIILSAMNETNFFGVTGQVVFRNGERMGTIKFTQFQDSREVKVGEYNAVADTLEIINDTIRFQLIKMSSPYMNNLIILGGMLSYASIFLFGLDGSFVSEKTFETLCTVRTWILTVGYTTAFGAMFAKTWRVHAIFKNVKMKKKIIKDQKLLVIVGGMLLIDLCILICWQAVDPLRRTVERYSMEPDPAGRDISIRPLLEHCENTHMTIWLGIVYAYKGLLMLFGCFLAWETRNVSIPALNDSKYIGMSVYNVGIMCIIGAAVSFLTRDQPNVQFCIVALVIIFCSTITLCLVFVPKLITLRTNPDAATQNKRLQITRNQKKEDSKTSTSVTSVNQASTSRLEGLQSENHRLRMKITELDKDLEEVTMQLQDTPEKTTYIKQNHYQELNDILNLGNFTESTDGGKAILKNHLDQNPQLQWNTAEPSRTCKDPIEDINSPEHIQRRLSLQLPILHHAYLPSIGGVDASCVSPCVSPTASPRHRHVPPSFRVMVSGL
Assay: In Vitro Assay (guinea pig trachea, reversal of baclofen inhibition of EFS-induced contractions)
Type: cell-based, guinea pig (male Hartley)
Details: 300 μM; 30 μmol/L baclofen
Procedure: Male Hartley guinea pigs (450-650 g) are sacrificed by stunning and the trachea removed proximal to the carina and cut into 5 mm segments. The segments are attached to isometric force displacement transducers (Model FT03: Grass Instruments) and suspended in 15 mL organ baths filled with low Ca^2+ (0.6 mmol/L) Tyrode's buffer solution (pH 7.4) supplemented with 5.6 mmol/L glucose, 30 μmol/L choline and 2 μmol/L indomethacin. […]
Use 90% as the dividing line for inhibition at 300 µM, with the line itself on the label 1 side and lower values as label 0.

INSERT INTO measurements (molecule, label) VALUES
  ('CC[C@@H]1CO[C@@H](CC(=O)O)CN1', 'label 1'),
  ('O=C(O)CC1CNCCO1 (stereo not shown)', 'label 0'),
  ('CC[C@@]1(CO)CO[C@@H](CC(=O)O)CN1 (relative stereo)', 'label 1'),
  ('C[C@@H]1CO[C@@H](CC(=O)O)CN1 (relative stereo) [Example 14A]', 'label 0'),
  ('CP(=O)(O)CC1CNCCO1 (stereo not shown)', 'label 1'),
  ('CC1(C)COC(CC(=O)O)CN1 (single isomer, unassigned) [Example 6B]', 'label 0'),
  ('C[C@H]1CO[C@@H](CC(=O)O)CN1 (relative stereo)', 'label 1'),
  ('O=C(O)CC1CNC2(CCCC2)CO1 (stereo not shown)', 'label 1'),
  ('CC1(C)COC(CC(=O)O)CN1 (stereo not shown) [Example 2]', 'label 1');
